From: ChEMBL document CHEMBL1129506

// reported log10(IC50) per item
System: Endothelin receptor type B (Sus scrofa)
Sequence (P35463 whole entry): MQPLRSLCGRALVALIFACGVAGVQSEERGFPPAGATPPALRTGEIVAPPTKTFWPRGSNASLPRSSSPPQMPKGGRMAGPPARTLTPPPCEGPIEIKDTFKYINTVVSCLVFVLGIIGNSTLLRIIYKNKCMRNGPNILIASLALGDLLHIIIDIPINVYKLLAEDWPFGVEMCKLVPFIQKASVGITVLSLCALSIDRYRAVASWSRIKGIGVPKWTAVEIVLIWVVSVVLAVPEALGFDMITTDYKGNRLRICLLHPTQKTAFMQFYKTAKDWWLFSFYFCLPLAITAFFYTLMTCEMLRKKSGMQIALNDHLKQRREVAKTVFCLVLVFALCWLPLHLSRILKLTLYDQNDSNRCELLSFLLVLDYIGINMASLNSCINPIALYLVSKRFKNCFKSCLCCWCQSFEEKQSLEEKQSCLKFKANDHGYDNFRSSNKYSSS
Test: Inhibitory activity measured against Endothelin B receptor binding to porcine cerebellum
Format: tissue-based
Property measured: log10(IC50) (log10 of the value in µM)

| Compound | System | Property measured | Recorded measurement |
| --- | --- | --- | --- |
| COc1ccc([C@@H]2[C@@H](C(=O)O)[C@H](c3ccc4c(c3)OCO4)CN2CC(=O)N(C)CC(C)(C)C)cc1 | Endothelin receptor type B (Sus scrofa) | log10(IC50) | 0.26 |
| COc1ccc([C@@H]2[C@@H](C(=O)O)[C@H](c3ccc4c(c3)OCO4)CN2C/C=C/CC(C)C)cc1 | Endothelin receptor type B (Sus scrofa) | log10(IC50) | 1.44 |
| COc1ccc([C@@H]2[C@@H](C(=O)O)[C@H](c3ccc4c(c3)OCO4)CN2CCOCC(C)C)cc1 | Endothelin receptor type B (Sus scrofa) | log10(IC50) | 0.92 |
| CCCCN(C)C(=O)CN1C[C@@H](c2ccc3c(c2)OCO3)[C@H](C(=O)O)[C@H]1c1ccc(OC)cc1 | Endothelin receptor type B (Sus scrofa) | log10(IC50) | 0.14 |
| CCCC(CCC)C(=O)CN1C[C@@H](c2ccc3c(c2)OCO3)[C@H](C(=O)O)[C@H]1c1ccc(OC)cc1 | Endothelin receptor type B (Sus scrofa) | log10(IC50) | -0.55 |
| COc1ccc([C@@H]2[C@@H](C(=O)O)[C@H](c3ccc4c(c3)OCO4)CN2C(=O)COc2ccc(F)cc2)cc1 | Endothelin receptor type B (Sus scrofa) | log10(IC50) | 1.10 |
| COc1ccc([C@@H]2[C@@H](C(=O)O)[C@H](c3ccc4c(c3)OCO4)CN2CC(=O)N(CCC(C)C)CCC(C)C)cc1 | Endothelin receptor type B (Sus scrofa) | log10(IC50) | -1.39 |
| COc1ccc([C@@H]2[C@@H](C(=O)O)[C@H](c3ccc4c(c3)OCO4)CN2CC(=O)N(C)CC(C)C)cc1 | Endothelin receptor type B (Sus scrofa) | log10(IC50) | 0.02 |
| CCCCC(=O)CN1C[C@@H](c2ccc3c(c2)OCO3)[C@H](C(=O)O)[C@H]1c1ccc(OC)cc1 | Endothelin receptor type B (Sus scrofa) | log10(IC50) | 0.39 |
| CCN(CC)C(=O)CN1C[C@@H](c2ccc3c(c2)OCO3)[C@H](C(=O)O)[C@H]1c1ccc(OC)cc1 | Endothelin receptor type B (Sus scrofa) | log10(IC50) | 0.72 |
| COc1ccc([C@@H]2[C@@H](C(=O)O)[C@H](c3ccc4c(c3)OCO4)CN2CC(N)=O)cc1 | Endothelin receptor type B (Sus scrofa) | log10(IC50) | 0.51 |
| CCCCN(C(=O)CN1C[C@@H](c2ccc3c(c2)OCO3)[C@H](C(=O)O)[C@H]1c1ccc(OC)cc1)c1ccccc1 | Endothelin receptor type B (Sus scrofa) | log10(IC50) | -0.51 |
| CCCCN(CCCC)CC(=O)N1C[C@@H](c2ccc3c(c2)OCO3)[C@H](C(=O)O)[C@H]1c1ccc(OC)cc1 | Endothelin receptor type B (Sus scrofa) | log10(IC50) | 1.47 |
| COc1ccc([C@@H]2[C@@H](C(=O)O)[C@H](c3ccc4c(c3)OCO4)CN2C(=O)c2ccco2)cc1 | Endothelin receptor type B (Sus scrofa) | log10(IC50) | 1.61 |
| CCCNC(=O)CN1C[C@@H](c2ccc3c(c2)OCO3)[C@H](C(=O)O)[C@H]1c1ccc(OC)cc1 | Endothelin receptor type B (Sus scrofa) | log10(IC50) | -0.40 |
| CCCCCN(CCCCC)C(=O)CN1C[C@@H](c2ccc3c(c2)OCO3)[C@H](C(=O)O)[C@H]1c1ccc(OC)cc1 | Endothelin receptor type B (Sus scrofa) | log10(IC50) | -0.50 |
